Test: Lipophilicity, logP of the compound by UPLC-MS method
Type: physicochemical
Details: octanol/water; read-out: logP
assayEndpoint: logP
Could you respond with only the numeric value?

Query: Given the entry Cc1ccsc1C(=CCCN(C)C(CCN)C(=O)NCc1ccccc1)c1sccc1C (configuration not stated) , report its measured logP.
Response: 5.5

Query: Please report the recorded logP for Cc1ccsc1C(=CCCN(C)C(CC(C)O)C(=O)NCc1ccc(Cl)cc1)c1sccc1C (stereo in doubt) .
Response: 5.99

Query: Data request, read-out logP, for Cc1ccsc1C(=CCCN(C)C(CCN)C(=O)NCc1ccccc1Cl)c1sccc1C (configuration not stated)
Response: 6.11

Query: Given Cc1ccsc1C(=CCCN(C)C(CCN)C(=O)NCc1ccc(F)cc1)c1sccc1C (configuration not stated) , state its recorded logP.
Response: 6.45

Query: I'd like to know its logP. The compound in question is CC(=O)NCCC(C(=O)NCc1ccccc1Cl)N(C)CCC=C(c1sccc1C)c1sccc1C (configuration not stated)
Response: 6.46

Query: Entry Cc1ccsc1C(=CCCN(C)C(CO)C(=O)NCc1ccc(Cl)cc1)c1sccc1C (configuration not stated) : reported logP = ?
Response: 6.47

Query: I'd like to know its logP. The compound in question is Cc1ccsc1C(=CCCN(C)C(CC(C)O)C(=O)NCc1ccccc1Cl)c1sccc1C (racemic; form 1)
Response: 5.95

Query: Please look up its logP: Cc1ccsc1C(=CCCN(C)C(CCO)C(=O)NCc1ccc(F)cc1)c1sccc1C (configuration not stated)
Response: 5.87

Query: Given the entry Cc1ccsc1C(=CCCN(C)C(CCO)C(=O)NCc1ccccc1)c1sccc1C (configuration not stated) , report its measured logP.
Response: 5.71

Query: Which logP is listed for Cc1ccc(CNC(=O)C(CCO)N(C)CCC=C(c2sccc2C)c2sccc2C)cc1 (configuration not stated) ?
Response: 6.2

Query: Look up logP for this compound: Cc1ccsc1C(=CCCN(C)C(CC(C)O)C(=O)NCc1ccc(F)cc1)c1sccc1C (racemic; form 1)
Response: 5.51

Query: For the compound shown here, Cc1ccsc1C(=CCCN(C)C(CCO)C(=O)NCc1ccc(Cl)cc1)c1sccc1C (configuration not stated) , give the reported logP.
Response: 6.38
